Origin of values: the array DNA melting data of Ke et al. (doi:10.1101/2024.01.08.574731)

- experimental_details: melting temperature; fluorescence melt of hairpins on a sequencing array, two-state fit, raised by 9.35 °C to match UV melts
- stated_conditions: sodium 0.088 M
recorded_endpoint: Tm (°C)
Could you give me the number in °C? Just the number is fine.

GCCCCTCGAAAGAGCGGC (((.(((....))).))) | 49.8
GTTCACGAAAGTGACAAC ((((((....)))..))) | 35.3
CGCGGACCGCTCCGCG ((((((....)))))) | 63.1
GCTCGAGGAAACTTGAGC ((((.((....)).)))) | 50.8
GACGTACGAAAGTAGTC (((.(((....)))))) | 52.8
GTTATCCGAAAGGAAAAC (((.(((....))).))) | 40.8
GTGTCGAAAGACAC (((((....))))) | 68
GGTCGACGAAAGTCTACC (((.(((....))).))) | 49.8
GCGTTACACGC ((((...)))) | 58.1
GTGTTCGAAAGAAGGCAC ((((((....)))..))) | 28.6

(Q) Given the entry GAGCCAGGAAACTGGTTC ((.((((....)))).)) , report its measured Tm.
(A) 49.4

(Q) Given the entry GCCTGGGGAAACTCGGGC (((.(.(....).).))) , report its measured Tm.
(A) 46.7
